Just for reference, patent EP0639376A1 is where these values come from.

assay: Test for stability: percentage of compound remaining after storage at 60°C, measured by liquid chromatography; type: physicochemical; details: buffer with hco-60; Table 5; 0.05 g compound, 1.0 g HCO-60, pH buffer; 60°C, 20 days; read-out: Stability (as percentage of compound remained after stored at 60°C for 20 days)
Measurement Kind: remaining at 480 h (%)

{"columns": ["Compound", "Unit Label", "Result"],
 "data": [
  ["CCOC(=O)Oc1ccc(/C=C/C=C/C(=O)NCCCN2CCN(C(c3ccccc3)c3ccccc3)CC2)cc1OC [Compound (V)]", "%", 92.1],
  ["CCOC(=O)Oc1ccc(/C=C/C=C/C(=O)NCCN2CCC(OC(c3ccccc3)c3ccccc3)CC2)cc1OC(=O)OCC [(VII)]", "%", 92.6],
  ["CCOC(=O)Oc1ccc(/C=C/C(=O)NCCN2CCC(OC(c3ccccc3)c3ccccc3)CC2)cc1OC(=O)OCC [(VI)]", "%", 90.9],
  ["CCOC(=O)Oc1ccc(/C=C/C(=O)NCCN2CCC(OC(c3ccccc3)c3ccccc3)CC2)cc1OC [Compound (IV)]", "%", 91.2]
]}
